The reported numbers originate from ChEMBL document CHEMBL6182949.

# Assayed system: CYP2B6 (Homo sapiens, UniProt P20813)
# Sequence (P20813 whole entry): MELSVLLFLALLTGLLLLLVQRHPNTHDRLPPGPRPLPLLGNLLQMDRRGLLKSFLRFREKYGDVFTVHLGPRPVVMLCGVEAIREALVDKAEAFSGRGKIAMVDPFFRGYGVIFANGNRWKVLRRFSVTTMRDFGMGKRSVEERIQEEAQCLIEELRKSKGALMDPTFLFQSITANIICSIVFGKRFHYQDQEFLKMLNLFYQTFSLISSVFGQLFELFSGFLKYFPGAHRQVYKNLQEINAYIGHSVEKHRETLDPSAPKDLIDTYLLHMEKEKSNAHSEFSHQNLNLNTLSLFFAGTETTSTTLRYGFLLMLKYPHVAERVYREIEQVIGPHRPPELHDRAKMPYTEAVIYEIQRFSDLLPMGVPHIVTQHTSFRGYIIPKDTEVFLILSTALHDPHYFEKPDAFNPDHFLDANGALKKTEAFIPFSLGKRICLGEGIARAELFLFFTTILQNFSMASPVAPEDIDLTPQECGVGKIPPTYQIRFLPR
# Experiment description: Inhibition of CYP2B6 in human liver microsome using bupropion as substrate at 10 uM preincubated for 5 mins followed by NADPH addition and measured after 10 mins by LC-MS/MS analysis relative to control
# Format: ADME
# Test conditions: human liver microsomes, probe bupropion, time 15 min
Property: inhibition at 10 min, 10 µM (%)
Give the quantity in %, number only.

Give the measured inhibition at 10 min, 10 µM for Cn1c(=O)n(C2CCC(=O)NC2=O)c2cccc(C#CCO[C@H]3CC[C@H](CN4CCC5(CC4)Cc4cc(NC(=O)c6coc7cccnc67)c(N6CCC(CO)CC6)cc4O5)CC3)c21 (stereo partly specified) 0.13
